Biological target: FvTox1 in the pLexA vector (LexA fusion) (Fusarium virguliforme)
Experiment: two-hybrid; LexA two-hybrid system, yeast EGY48 [pSH18-34]; FvTox1 in pLexA, peptides in pB42AD; reporters LacZ and LEU2; quantitative β-galactosidase activity (Miller units), three biological replications
β-galactosidase activity by entry:
Numeric only. Scale: Miller units

| BINDER | UNIT STRING | β-galactosidase activity |
| --- | --- | --- |
| synthetic FvTox1-interacting fusion peptide 6 in pB42AD (no flanking cysteines) (designed binder) GGGSGGGGSGGGGSHEGAWHNYARSVGGGGSELGGGGSGGGGSGGGGSSNGRVADGGGGS | Miller units | 5.32 |

Query: Fill in: β-galactosidase activity of synthetic FvTox1-interacting fusion peptide 8 in pB42AD (no flanking cysteines) (designed binder) GGGGSGGGGSGGGGSSYLPETIYEYRLGGGGSELGGGGSGGGGSGGGGSVENKTRYHDREVGGGGSLEGGGGSGGGGSGGGGSSNGRVADGGGGS is ___
Reply: 3.35

Query: GGGGSGGGGSGGGGSHEGAWHNYARSVGGGGS [synthetic FvTox1-interacting peptide 3 in pB42AD (no flanking cysteines)] , same question.
Reply: 5.87
